Just for reference, PubChem BioAssay (NCI) is where these values come from.

Recorded growth for the following compounds
tested on: 786-0 renal; test: NCI-60 one-dose screen, 48 h (100 = growth as untreated, 0 = no growth, -100 = all killed); conditions: 10 µM unless noted
The panel holds about 83,000 compounds, 20% with a hit somewhere; the sample as a whole holds those more often. The source made the active and inactive calls. Rule for the calls: active = growth percent below 10; inactive = the rest.

Recorded growth, per entry:
smilesInput | result
Cc1cc(N=Nc2ccc(-c3ccc(N=Nc4ccc(O)c(C(=O)O)c4)cc3)cc2)c(N)c(N=Nc2ccc(C(=O)O)cc2)c1N | 84.4% (inactive)
COCCOCCOCc1n(Cc2ccc3ccccc3n2)c2ccccc2[n+]1Cc1ccc2ccccc2c1 | 21.2% (inactive)

We next turn to a different compound, shown below.
Query: Please give the measured growth for this compound: `CCOCC(O)(c1ccc(Cl)cc1)c1ccc(Cl)cc1`
Result: 104% (inactive)
